Data provenance is the supplement of paper PMC11208160.

assay.procedure: recombinant UMI read abundance after kanamycin selection (control-corrected) (log10(CPM+1)); higher = more efficient recombination; extreme values may be limits of the assay; sequences stand for … in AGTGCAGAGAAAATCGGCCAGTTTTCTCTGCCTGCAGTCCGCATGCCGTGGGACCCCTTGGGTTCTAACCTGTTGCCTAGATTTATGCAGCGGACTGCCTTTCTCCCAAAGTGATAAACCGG…AGGTTGGTTTCACT; site = the 11-nt donor
Decision: recombinant UMI read abundance (log10) >= 0.03 yields Satisfied, all other cases yield Not satisfied.

AAGCACGCATGGACCGGTTTTCCCGGTAATCCGTATTTGGG (site ACGCACGCTCC) ... Not satisfied
CGGGGACCATGGACCGGTTTTCCCGGTAATCCGTATTTGGG (site CGGGGACCTCC) ... Not satisfied
CATTCCTCATGGACCGGTTTTCCCGGTAATCCGTATTTGCC (site CAATCCTCTGG) ... Satisfied
CACGCCTCATGGACCGGTTTTCCCGGTAATCCGTATTTGGC (site CACGCCTCTGC) ... Satisfied

Is the recorded value of recombinant UMI read abundance (log10) equal to or greater than 0.03 for this sequence? AATTAAACATGGACCGGTTTTCCCGGTAATCCGTATTTGTT (site AATTAAACTAA)
Not satisfied

One more sequence: ACTAGAACATGGACCGGTTTTCCCGGTAATCCGTATTTGAG (site ACTAGTACTCT)
Satisfied

One more sequence: GACCTTGCATGGACCGGTTTTCCCGGTAATCCGTATTTGCA (site GACCTTGCTTG)
Not satisfied

One more sequence: CGGGAACCATGGACCGGTTTTCCCGGTAATCCGTATTTGAG (site CGGGAACCTGT)
Not satisfied

* * *

assay.procedure: recombinant barcode read abundance after kanamycin selection (control-corrected) (log10(CPM+1)); higher = more efficient recombination; sequences stand for … in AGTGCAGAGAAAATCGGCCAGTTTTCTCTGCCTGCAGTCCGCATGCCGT…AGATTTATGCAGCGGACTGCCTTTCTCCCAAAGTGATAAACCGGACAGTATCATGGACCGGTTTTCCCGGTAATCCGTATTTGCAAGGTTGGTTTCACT; site = the 11-nt target
Decision: recombinant barcode read abundance (log10) >= 0.06 yields class 1, all other cases yield class 0.

CCGCATGCTTGGGTTCTAACCTGTTGCCT (site CCGAATGCTAG) ... class 0
CCTGGGCCTTGGGTTCTAACCTGTTGCTT (site CCTGGACCTAC) ... class 1
CCAGAAGCTTGGGTTCTAACCTGTTGCGT (site CCAGAAGCTAC) ... class 1
TAAGATGCTTGGGTTCTAACCTGTTGCGG (site TAAGATGCTCC) ... class 1
CTGCCCGCTTGGGTTCTAACCTGTTGCCT (site CTGCCCGCTAG) ... class 1
TATAATACTTGGGTTCTAACCTGTTGCGG (site TAGAATACTCC) ... class 1

// next entry
Is the recorded value of recombinant barcode read abundance (log10) equal to or greater than 0.06 for this sequence? ATACTCTCTTGGGTTCTAACCTGTTGCCT (site ATACTCTCTAG)
class 1

* * *

assay.procedure: recombinant barcode read abundance after kanamycin selection (control-corrected) (log10(CPM+1)); higher = more efficient recombination; sequences stand for … in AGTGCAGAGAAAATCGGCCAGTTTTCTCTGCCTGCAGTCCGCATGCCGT…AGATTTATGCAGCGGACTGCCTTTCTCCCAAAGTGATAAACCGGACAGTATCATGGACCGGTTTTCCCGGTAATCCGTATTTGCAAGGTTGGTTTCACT; site = the 11-nt target
experimental.endpoint: recombinant barcode read abundance (log10)
Numbers only.

Solved entries:
TGCCCCTCTTGGGTTCTAACCTGTTGCCG (site ACAAGGCCTAT) ... 0.0768
AAGATACCTTGGGTTCTAACCTGTTGCTG (site AAGATACCTCA) ... 1.76
GCGTGAGCTTGGGTTCTAACCTGTTGCCT (site GCCTGAGCTAG) ... 0.151
TCCGTGTCTTGGGTTCTAACCTGTTGCCT (site TCCGTGGCTAG) ... 0.0597
GCAAGGACTTGGGTTCTAACCTGTTGCAG (site GCATGGACTCT) ... 0.587
CTCGGATCTTGGGTTCTAACCTGTTGCTT (site CTCGGATCTAA) ... 1.38
ATCCGCTCTTGGGTTCTAACCTGTTGCCT (site GTCCGCTCTAG) ... 0.0221
CGTGAACCTTGGGTTCTAACCTGTTGCGT (site CGTGAACCTAC) ... 2.79

Go through the list and state recombinant barcode read abundance (log10) for each entry.
1. GAGGCTCCTTGGGTTCTAACCTGTTGCCG (site GAGGCTCCTAG)
2. CCTACACCTTGGGTTCTAACCTGTTGCCT (site CCTACAACTAG)

0.113
0.0638

* * *

assay.procedure: recombinant UMI read abundance after kanamycin selection (control-corrected) (log10(CPM+1)); higher = more efficient recombination; extreme values may be limits of the assay; sequences stand for … in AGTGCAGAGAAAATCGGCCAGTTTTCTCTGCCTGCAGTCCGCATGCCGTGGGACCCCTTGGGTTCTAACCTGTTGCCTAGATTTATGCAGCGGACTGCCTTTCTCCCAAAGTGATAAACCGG…AGGTTGGTTTCACT; site = the 11-nt donor
I'd be grateful if you could share measured recombinant UMI read abundance (log10) for these entries.
Numbers only.

CCGCTACCATGGACCGGTTTTCCCGGTAATCCGTATTTGCT (site CAGCTACCTAG) ... 0

Go through the list and state recombinant UMI read abundance (log10) for each entry.
1. ATCTAAGCATGGACCGGTTTTCCCGGTAATCCGTATTTGAG (site ATCTAAGCTCT)
2. TTTAGGGCATGGACCGGTTTTCCCGGTAATCCGTATTTGAC (site TTTAGGGCTGT)
3. CGGTACCCATGGACCGGTTTTCCCGGTAATCCGTATTTGAG (site CGGTACCCTCT)
4. CAGCGAACATGGACCGGTTTTCCCGGTAATCCGTATTTGGG (site CAGCGAACTCC)
5. TACTTGACATGGACCGGTTTTCCCGGTAATCCGTATTTGCC (site TACTTGACTCG)
6. GCCCAGCCATGGACCGGTTTTCCCGGTAATCCGTATTTGGT (site GCCCAGCCTAC)
7. GTAAGTACATGGACCGGTTTTCCCGGTAATCCGTATTTGAC (site GTATGTACTGT)

[2.16, 1.53, 0.188, 0.888, 0.0284, 0.0164, 0.67]

Go through the list and state recombinant UMI read abundance (log10) for each entry.
1. ATTCTTACATGGACCGGTTTTCCCGGTAATCCGTATTTGAG (site ATTCTTACTCT)
2. ATCCGTCCATGGACCGGTTTTCCCGGTAATCCGTATTTGAT (site ACCCGTCCTAT)
3. AGGTAGGCATGGACCGGTTTTCCCGGTAATCCGTATTTGGC (site ATGTAGGCTGC)
4. AATGTGACATGGACCGGTTTTCCCGGTAATCCGTATTTGAC (site AATGTGACTGT)

[0.0416, 0.0678, 0.775, 2.69]

* * *

I'd be grateful if you could share measured recombinant UMI read abundance (log10) for these entries.
assay.procedure: recombinant UMI read abundance after kanamycin selection (control-corrected) (log10(CPM+1)); higher = more efficient recombination; extreme values may be limits of the assay; sequences stand for … in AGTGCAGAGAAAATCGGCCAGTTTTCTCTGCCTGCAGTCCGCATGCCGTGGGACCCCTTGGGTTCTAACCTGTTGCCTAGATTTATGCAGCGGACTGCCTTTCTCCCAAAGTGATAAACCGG…AGGTTGGTTTCACT; site = the 11-nt donor
Answers are plain numbers.

Solved entries:
GCCACGCCATGGACCGGTTTTCCCGGTAATCCGTATTTGTA (site GCCACGCCTTT) ... 0.0209
ACAGTATCATGGACCGGTTTTCCCGGTAATCCGTATTTGAA (site ACAGTATCTTG) ... 0.829
TTAGATGCATGGACCGGTTTTCCCGGTAATCCGTATTTGTG (site TTAGTTGCTCA) ... 0.00838
GTTTGAACATGGACCGGTTTTCCCGGTAATCCGTATTTGGC (site GTTTGAACTGC) ... 0

Would you kindly look at the next entry?
So what does the record say about recombinant UMI read abundance (log10) for CCTATTACATGGACCGGTTTTCCCGGTAATCCGTATTTGGC (site CCTAATACTGC) ?
0

* * *

assay.procedure: recombinant barcode read abundance after kanamycin selection (control-corrected) (log10(CPM+1)); higher = more efficient recombination; sequences stand for … in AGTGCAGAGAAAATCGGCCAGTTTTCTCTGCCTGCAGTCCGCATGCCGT…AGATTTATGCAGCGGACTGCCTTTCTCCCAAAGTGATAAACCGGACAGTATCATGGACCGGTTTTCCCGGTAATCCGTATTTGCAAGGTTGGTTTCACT; site = the 11-nt target
Decision: recombinant barcode read abundance (log10) >= 0.2 yields y, all other cases yield n.

AGGTTCCCTTGGGTTCTAACCTGTTGCTC (site AGGTTCCCTAA) ... y
AGAAGTCCTTGGGTTCTAACCTGTTGCCG (site AGAAGTCCTCA) ... y

Is the recorded value of recombinant barcode read abundance (log10) equal to or greater than 0.2 for this sequence? GTCCGTCCTTGGGTTCTAACCTGTTGCCT (site GTCCGTCCTAC)
n

One more sequence: GTGAGGACTTGGGTTCTAACCTGTTGCTG (site GTGTGGACTCT)
n

One more sequence: TATAGAGCTTGGGTTCTAACCTGTTGCGG (site TAAAGAGCTCC)
y

One more sequence: TAGATCACTTGGGTTCTAACCTGTTGCAT (site TAGTTCACTAT)
n

One more sequence: AAATCCTCTTGGGTTCTAACCTGTTGCCT (site TAATCCTCTAG)
y

One more sequence: AGCCGAACTTGGGTTCTAACCTGTTGCCT (site GGCCGAACTAG)
y

One more sequence: CACAGGCCTTGGGTTCTAACCTGTTGCAG (site TGTTCAGCTAG)
n
